Tested on: 556581-035-R-J1-PDC spheroids with HUVEC/MSC, viability;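 also: spheroids exposed to compounds for 7 days before readout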
Assay Remarks: Anticancer human tumor 556581-035-R-J1-PDC patient-derived ovarian carcinoma cell line growth inhibition [IpAb]
Setup Conditions: second compound 1 µM; first compound 0.1 µM; hits give low values
Measured Attribute: viability, T/C (%)
Express the result in % but write the number alone.

Example entries begin here.
{"Compound": "Cn1ncnc1[C@H]1c2n[nH]c(=O)c3cc(F)cc(c23)N[C@@H]1c1ccc(F)cc1 + CCN1CCN(Cc2ccc(Nc3ncc(F)c(-c4cc(F)c5nc(C)n(C(C)C)c5c4)n3)nc2)CC1", "Measured Attribute": "viability, T/C", "Units Symbol": "%", "Experimental Value": 44.4}
{"Compound": "C=CC(=O)N1CCN(c2nc(=O)n(-c3c(C)ccnc3C(C)C)c3nc(-c4c(O)cccc4F)c(F)cc23)C(C)C1 (stereo not given) + CC(C)NCC(C(=O)N1CCN(c2ncnc3c2C(C)CC3O)CC1)c1ccc(Cl)cc1", "Measured Attribute": "viability, T/C", "Units Symbol": "%", "Experimental Value": 65.6}
{"Compound": "CC(C)n1nc(-c2ccc3oc(N)nc3c2)c2c(N)ncnc21 + CCN1CCN(Cc2ccc(Nc3ncc(F)c(-c4cc(F)c5nc(C)n(C(C)C)c5c4)n3)nc2)CC1", "Measured Attribute": "viability, T/C", "Units Symbol": "%", "Experimental Value": 23.1}
{"Compound": "COc1c(OCCCN2CCOCC2)ccc2c3n(c(=NC(=O)c4cnc(N)nc4)nc12)CCN3 + CCN1CCN(Cc2ccc(Nc3ncc(F)c(-c4cc(F)c5nc(C)n(C(C)C)c5c4)n3)nc2)CC1", "Measured Attribute": "viability, T/C", "Units Symbol": "%", "Experimental Value": 29.8}
{"Compound": "Cc1nc(NC(=O)N2CCCC2C(N)=O)sc1-c1ccnc(C(C)(C)C(F)(F)F)c1 (stereo not given) + CC(C)NCC(C(=O)N1CCN(c2ncnc3c2C(C)CC3O)CC1)c1ccc(Cl)cc1", "Measured Attribute": "viability, T/C", "Units Symbol": "%", "Experimental Value": 53.8}

## Task Name the recorded viability, T/C for Cn1ncc(Cl)c1-c1cc(C(=O)NC(CN)Cc2cccc(F)c2)sc1Cl (stereo not given) + CC(C)NCC(C(=O)N1CCN(c2ncnc3c2C(C)CC3O)CC1)c1ccc(Cl)cc1 .
## Result 67.2

## Task Same thing, different compound: CC1(C)CCC(CN2CCN(c3ccc(C(=O)NS(=O)(=O)c4ccc(NCC5CCOCC5)c([N+](=O)[O-])c4)c(Oc4cnc5[nH]ccc5c4)c3)CC2)=C(c2ccc(Cl)cc2)C1 + CCN1CCN(Cc2ccc(Nc3ncc(F)c(-c4cc(F)c5nc(C)n(C(C)C)c5c4)n3)nc2)CC1
## Result 58.1

## Task Same thing, different compound: Cn1ncc(Cl)c1-c1cc(C(=O)NC(CN)Cc2cccc(F)c2)sc1Cl (stereo not given) + CCN1CCN(Cc2ccc(Nc3ncc(F)c(-c4cc(F)c5nc(C)n(C(C)C)c5c4)n3)nc2)CC1
## Result 54.3

## Task Same thing, different compound: CCCS(=O)(=O)Nc1ccc(F)c(C(=O)c2c[nH]c3ncc(-c4ccc(Cl)cc4)cc23)c1F + CC(C)NCC(C(=O)N1CCN(c2ncnc3c2C(C)CC3O)CC1)c1ccc(Cl)cc1
## Result 69

## Task Same thing, different compound: C=CC(=O)N1CCN(c2nc(=O)n(-c3c(C)ccnc3C(C)C)c3nc(-c4c(O)cccc4F)c(F)cc23)C(C)C1 (stereo not given) + CCN1CCN(Cc2ccc(Nc3ncc(F)c(-c4cc(F)c5nc(C)n(C(C)C)c5c4)n3)nc2)CC1
## Result 50.2
